Record form. Attribute: IC50. Fill in for each entry.
Biological target: Histone deacetylase 1 (Homo sapiens, UniProt Q13547)
Sequence (Q13547 whole entry): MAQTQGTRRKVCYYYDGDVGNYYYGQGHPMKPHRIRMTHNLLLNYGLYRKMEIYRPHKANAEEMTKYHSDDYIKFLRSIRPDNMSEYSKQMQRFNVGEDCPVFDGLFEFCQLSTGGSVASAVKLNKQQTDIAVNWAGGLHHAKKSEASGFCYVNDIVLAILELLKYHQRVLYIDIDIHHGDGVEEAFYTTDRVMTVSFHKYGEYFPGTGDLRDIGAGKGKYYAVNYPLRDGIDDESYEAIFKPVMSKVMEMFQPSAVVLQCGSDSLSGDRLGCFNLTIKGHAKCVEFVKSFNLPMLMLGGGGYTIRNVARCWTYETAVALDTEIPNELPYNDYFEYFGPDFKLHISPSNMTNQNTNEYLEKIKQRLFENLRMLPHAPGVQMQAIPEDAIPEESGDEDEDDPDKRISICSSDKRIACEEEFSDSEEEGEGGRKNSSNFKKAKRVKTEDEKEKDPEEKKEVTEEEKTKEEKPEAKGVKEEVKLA
Assay: Inhibition of human recombinant HDAC1
Give bare numbers, in µM.

Worked cases, answers included:
structureSmilesString: Nc1ccccc1NC(=O)c1ccc(CNc2cccc(-c3cccnc3)c2)cc1
targetUnderTest: Histone deacetylase 1 (Homo sapiens, UniProt Q13547)
IC50 / µM: 0.09
--
structureSmilesString: CN1CCN(c2ccc(-c3ccnc(NCc4ccc(C(=O)Nc5ccccc5N)cc4)n3)cn2)CC1
targetUnderTest: Histone deacetylase 1 (Homo sapiens, UniProt Q13547)
IC50 / µM: 0.08
--
structureSmilesString: Nc1ccccc1NC(=O)c1ccc(CNc2nccc(-c3ccc(CN4CCOCC4)cc3)n2)cc1
targetUnderTest: Histone deacetylase 1 (Homo sapiens, UniProt Q13547)
IC50 / µM: 0.09
--
structureSmilesString: COCOC(C)(C)c1ccc(-c2ccnc(NCc3ccc(C(=O)Nc4ccccc4N)cc3)n2)cn1
targetUnderTest: Histone deacetylase 1 (Homo sapiens, UniProt Q13547)
IC50 / µM: 0.25
--
structureSmilesString: Nc1ccccc1NC(=O)c1ccc(CNc2cc(-c3cccnc3)ncn2)cc1
targetUnderTest: Histone deacetylase 1 (Homo sapiens, UniProt Q13547)
IC50 / µM: 0.07
--
structureSmilesString: Nc1ccccc1NC(=O)c1ccc(CNc2nccc(-c3cccc(OCCN4CCOCC4)c3)n2)cc1
targetUnderTest: Histone deacetylase 1 (Homo sapiens, UniProt Q13547)
IC50 / µM: 0.14

Can you give me IC50 for all of these, one by one?
1. Nc1ccccc1NC(=O)c1ccc(CNc2nccc(-c3ccsc3)n2)cc1
2. CN(C)CCOc1ccc(-c2ccnc(NCc3ccc(C(=O)Nc4ccccc4N)cc3)n2)cc1

## Result
[0.07, 0.12]

* * *

Target: UniProtKB Q13547
Assay: Inhibition of human recombinant HDAC1
Class (required): determined from IC50; valid ranges are lower band = under 100 nM, central band = from 100 nM up to 200 nM, upper band = 200 nM and over

Solved entries:
structureSmilesString: O=C(Nc1ccccc1)c1ccc(CNc2nccc(-c3cccnc3)n2)cc1
targetUnderTest: UniProtKB Q13547
class: upper band

structureSmilesString: Nc1cc(-c2cccnc2)nc(NCc2ccc(C(=O)Nc3ccccc3N)cc2)n1
targetUnderTest: UniProtKB Q13547
class: central band

structureSmilesString: Nc1ccccc1NC(=O)c1ccc(/C=C/CNc2nccc(-c3cccnc3)n2)cc1
targetUnderTest: UniProtKB Q13547
class: central band

Kindly consider the entry below.
## Task // return the class label for Nc1ccccc1NC(=O)c1ccc(CNc2nccc(-c3ccc(N4CCOCC4)nc3)n2)cc1
## Result lower band

* * *

Target sequence: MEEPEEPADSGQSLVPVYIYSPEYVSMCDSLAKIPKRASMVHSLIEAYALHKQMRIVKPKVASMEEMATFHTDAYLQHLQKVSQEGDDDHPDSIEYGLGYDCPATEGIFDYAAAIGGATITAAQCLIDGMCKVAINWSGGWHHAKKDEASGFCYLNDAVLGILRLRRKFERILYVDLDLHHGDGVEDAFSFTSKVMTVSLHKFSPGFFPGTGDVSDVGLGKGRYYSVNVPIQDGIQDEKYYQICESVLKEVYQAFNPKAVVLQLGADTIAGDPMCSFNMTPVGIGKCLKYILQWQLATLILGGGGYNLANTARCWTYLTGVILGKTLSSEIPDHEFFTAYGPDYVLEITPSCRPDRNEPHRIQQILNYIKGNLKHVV
pIC50: −log10 of the molar value.
resultType: pIC50

## Task Read off the recorded pIC50 for Nc1ccccc1NC(=O)c1ccc(CNc2nccc(-c3ccn[nH]3)n2)cc1
## Result < 5.00
